Lab note: Ki readings collected with human mGlu5a receptor (Homo sapiens) for the following compounds.
API: value field is a number in nM; no unit string.

Recorded Ki, per entry:
# entry-smiles, measured-metric, recorded-number
rows = [
    ("COCCn1ncc(-n2cc(C#Cc3ccnc(Cl)c3)nc2C)cc1=O", "Ki", 597),
    ("Cc1cccc(C#Cc2nc(C)n(-c3ccn(CCO)c(=O)c3)c2C)c1", "Ki", 446),
    ("Cc1nc(C#Cc2cccc(Cl)c2)cn1-c1cccc(O)n1", "Ki", 42),
    ("Cc1nc(C#Cc2cccc(Cl)c2)c(C)n1-c1ccn(C)c(=O)c1", "Ki", 33),
    ("Cc1nc(C#Cc2ccnc(Cl)c2)c(C)n1-c1cnn(C)c(=O)c1", "Ki", 306),
]

State measured Ki of the compound `Cc1nc(C#Cc2cccc(Cl)c2)cn1-c1cncc(=O)[nH]1` with human mGlu5a receptor (Homo sapiens).
659

State measured Ki of the compound `Cc1nc(C#Cc2ccnc(Cl)c2)cn1-c1cncc(=O)[nH]1` with human mGlu5a receptor (Homo sapiens).
504

* * *

Lab note: log10 Ki readings collected with human mGlu5a receptor (Homo sapiens, UniProt P41594) for the following compounds.
Sequence (P41594 21-1180 isoform P41594-2 limits assumed): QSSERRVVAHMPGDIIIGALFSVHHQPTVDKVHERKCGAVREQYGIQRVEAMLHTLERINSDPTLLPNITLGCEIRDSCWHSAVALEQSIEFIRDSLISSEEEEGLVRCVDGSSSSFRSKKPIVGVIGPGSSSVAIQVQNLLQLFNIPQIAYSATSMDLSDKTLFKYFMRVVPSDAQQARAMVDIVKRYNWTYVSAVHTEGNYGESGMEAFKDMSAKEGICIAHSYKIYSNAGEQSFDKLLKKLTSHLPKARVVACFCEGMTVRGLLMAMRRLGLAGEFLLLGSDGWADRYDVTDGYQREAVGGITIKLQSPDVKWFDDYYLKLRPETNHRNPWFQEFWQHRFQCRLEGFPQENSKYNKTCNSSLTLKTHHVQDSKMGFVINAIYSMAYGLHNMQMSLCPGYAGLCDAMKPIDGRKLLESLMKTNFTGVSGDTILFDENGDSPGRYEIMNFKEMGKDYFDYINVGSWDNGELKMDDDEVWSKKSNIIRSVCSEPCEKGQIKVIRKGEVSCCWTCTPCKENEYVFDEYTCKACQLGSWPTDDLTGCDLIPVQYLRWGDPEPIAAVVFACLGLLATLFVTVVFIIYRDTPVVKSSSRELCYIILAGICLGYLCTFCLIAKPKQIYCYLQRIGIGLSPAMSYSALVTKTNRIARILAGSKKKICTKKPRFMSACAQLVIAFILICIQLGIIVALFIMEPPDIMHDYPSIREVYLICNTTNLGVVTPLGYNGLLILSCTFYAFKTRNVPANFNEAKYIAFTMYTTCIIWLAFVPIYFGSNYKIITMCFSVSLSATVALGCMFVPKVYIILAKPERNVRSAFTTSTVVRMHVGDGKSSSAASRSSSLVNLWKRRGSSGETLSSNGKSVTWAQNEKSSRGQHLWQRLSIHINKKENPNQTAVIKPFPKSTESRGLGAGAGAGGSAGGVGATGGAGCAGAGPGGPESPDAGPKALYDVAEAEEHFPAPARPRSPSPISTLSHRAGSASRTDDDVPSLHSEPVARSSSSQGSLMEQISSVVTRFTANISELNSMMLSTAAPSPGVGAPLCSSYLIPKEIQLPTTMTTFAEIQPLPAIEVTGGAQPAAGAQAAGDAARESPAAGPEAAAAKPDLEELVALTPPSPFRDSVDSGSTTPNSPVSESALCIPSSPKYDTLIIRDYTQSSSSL
Remember, log10 of Ki, in nM.

# entry-smiles, experimental-target, log10 Ki
data = [
    ("COCCn1ccc(-n2cc(C#Cc3cccc(C)c3)nc2C)cc1=O", "human mGlu5a receptor (Homo sapiens, UniProt P41594)", 1.60),
    ("Cc1nc(C#Cc2cccc(Cl)c2)cn1-c1ccn(C)c(=O)c1", "human mGlu5a receptor (Homo sapiens, UniProt P41594)", 1.84),
    ("Cc1nc(C#Cc2cccc(Cl)c2)cn1-c1cccc(=O)n1C", "human mGlu5a receptor (Homo sapiens, UniProt P41594)", 2.19),
]

Supply recorded log10 Ki for `CCn1ncc(-n2cc(C#Cc3ccnc(Cl)c3)nc2C)cc1=O` here.
2.31

Supply recorded log10 Ki for `CCn1ccc(-n2c(C)nc(C#Cc3ccnc(Cl)c3)c2C)cc1=O` here.
2.38

Supply recorded log10 Ki for `COCCn1ccc(-n2c(C)nc(C#Cc3cccc(Cl)c3)c2C)cc1=O` here.
1.76

Supply recorded log10 Ki for `COCCn1ccc(-n2cc(C#Cc3cccc(Cl)c3)nc2C)cc1=O` here.
1.64

Supply recorded log10 Ki for `Cc1nc(C#Cc2ccnc(Cl)c2)c(C)n1-c1cc(=O)n(C)cn1` here.
2.76

Supply recorded log10 Ki for `CCOC(=O)Cn1ccc(-n2cc(C#Cc3cccc(C)c3)nc2C)cc1=O` here.
1.97

Supply recorded log10 Ki for `COCCn1ccc(-n2c(C)nc(C#Cc3cccc(C)c3)c2C)cc1=O` here.
1.94
